- protocol_text: qHTS assay to test for compound auto fluorescence at 590 nm (red) in HEK293 cells (AID 720679); further: on the % scale 0 is the no-effect control and ±100 the full control effect
- settings: red autofluorescence 540/590 nm; series mostly up to 91.3 µM
Active and inactive are the calls of the source. The call rests on the fitted dose curve; in most records, active means well fitted curve in the direction sought with a large enough effect in the repeat runs; inconclusive means weak or mixed curves; inactive means flat fitted curve, though single readings scatter.
reported_metric: fluorescence, % of fluorescent control

[[record]]
compound = "O=S(=O)(O)c1cccc2ccccc12"
experimental_value = "inactive"

[[record]]
compound = "C[N+]1(C)CCCC(OC(=O)C(O)(c2ccccc2)c2ccccc2)C1 (centres undefined)"
experimental_value = "0.215% [at 18.6 µM] (inactive)"

[[record]]
compound = "CCC1C(=O)OCC1Cc1cncn1C (centres undefined)"
experimental_value = "inactive"

[[record]]
compound = "CCCCN(CCC(=O)OCC)C(C)=O"
experimental_value = "inactive"


Just for reference, PubChem BioAssay (Tox21) is where these values come from.
